Literature roundup of Glucagon receptor (Homo sapiens, UniProt P47871) data, read-out IC50.
rule met if IC50 is below 400 nM. rule not met if not; exact matches included in rule not met.

compound=COc1cc(/C=C/C(=O)Nc2ccc(O)c(Cl)c2)cc(OC)c1OCc1ccc(C(C)C)cc1 assayed_target="Glucagon receptor (Homo sapiens, UniProt P47871)" label="rule not met"
compound=CC(C)c1ccc(Cn2ccc3c(/C=N/NC(=O)c4ccc(O)c(Cl)c4)cccc32)cc1 assayed_target="Glucagon receptor (Homo sapiens, UniProt P47871)" label="rule met"
compound=COc1cc(/C=N/NC(=O)c2ccc(O)cc2)cc(OC)c1OCc1ccc(C(C)C)cc1 assayed_target="Glucagon receptor (Homo sapiens, UniProt P47871)" label="rule not met"
compound=COc1cc(/C=N/NC(=O)c2ccc(O)c([N+](=O)[O-])c2)cc(OC)c1OCc1ccc(C(C)C)cc1 assayed_target="Glucagon receptor (Homo sapiens, UniProt P47871)" label="rule met"
compound=O=C(O)c1ccc(-c2cc(-c3ccc(F)cc3)c(-c3ccncc3)[nH]2)cc1 assayed_target="Glucagon receptor (Homo sapiens, UniProt P47871)" label="rule met"
compound=Cc1ccc(-c2cc(-c3ccc(F)cc3)c(-c3ccncc3)[nH]2)cc1 assayed_target="Glucagon receptor (Homo sapiens, UniProt P47871)" label="rule not met"
compound=COc1cc(/C=N/NC(=O)c2ccc(O)c(O)c2)cc(OC)c1OCc1ccc(C(C)C)cc1 assayed_target="Glucagon receptor (Homo sapiens, UniProt P47871)" label="rule not met"
compound=CSc1ccc(C2=NC(c3ccncc3)=C(c3ccc(F)cc3)C2)cc1 assayed_target="Glucagon receptor (Homo sapiens, UniProt P47871)" label="rule not met"
compound=COc1cc(/C=N/NS(=O)(=O)c2ccc(O)c(Cl)c2)cc(OC)c1OCc1ccc(C(C)C)cc1 assayed_target="Glucagon receptor (Homo sapiens, UniProt P47871)" label="rule not met"
compound=COc1cc(/C=N/NC(=O)c2ccc(O)c(F)c2)cc(OC)c1OCc1ccc(C(C)C)cc1 assayed_target="Glucagon receptor (Homo sapiens, UniProt P47871)" label="rule met"
compound=COc1cccc(C2=NC(C(F)(F)F)(C(F)(F)F)c3c(n(-c4ccc(Cl)cc4)c(=O)[nH]c3=O)N2)c1 assayed_target="Glucagon receptor (Homo sapiens, UniProt P47871)" label="rule not met"
compound=O=C(N/N=C/c1ccc(OCc2ccc(OC(F)(F)F)cc2)c2ccccc12)c1ccc(O)c(Cl)c1 assayed_target="Glucagon receptor (Homo sapiens, UniProt P47871)" label="rule met"
compound=Fc1ccc(-c2cc(-c3cccc(Cl)c3)[nH]c2-c2ccncc2)cc1 assayed_target="Glucagon receptor (Homo sapiens, UniProt P47871)" label="rule not met"
compound=Clc1ccc(-c2cc(-c3ccccc3Br)c(-c3ccncc3)[nH]2)cc1 assayed_target="Glucagon receptor (Homo sapiens, UniProt P47871)" label="rule not met"
compound=Fc1ccc(-c2cc[nH]c2-c2ccncc2)cc1 assayed_target="Glucagon receptor (Homo sapiens, UniProt P47871)" label="rule met"
compound="C[S+]([O-])c1ccc(-c2cc(-c3ccncc3)c(-c3ccc(F)cc3)[nH]2)cc1 (stereo not given)" assayed_target="Glucagon receptor (Homo sapiens, UniProt P47871)" label="rule met"
compound=COc1cc(CNNC(=O)c2ccc(O)c(Cl)c2)cc(OC)c1OCc1ccc(C(C)C)cc1 assayed_target="Glucagon receptor (Homo sapiens, UniProt P47871)" label="rule not met"
compound=COc1cc(/C=N/NC(=O)c2ccc(O)c(Cl)c2)ccc1OCc1ccc(C(C)C)cc1 assayed_target="Glucagon receptor (Homo sapiens, UniProt P47871)" label="rule not met"
compound=Cc1cc(-c2ccc(F)cc2)c(-c2ccncc2)[nH]1 assayed_target="Glucagon receptor (Homo sapiens, UniProt P47871)" label="rule met"
compound=COc1ccc(/C=N/NC(=O)c2ccc(O)c(Cl)c2)c2ccccc12 assayed_target="Glucagon receptor (Homo sapiens, UniProt P47871)" label="rule not met"
